test description: ATG_AP_1_CIS: Attagene CIS-FACTORIAL HepG2 Assay for human Activator Protein 1 (AP-1) (AID 2282931)
measurement conditions: HepG2 Attagene cis-factorial AP-1 reporter mRNA; actives raise or lower the signal
Activity calls are given as the source filed them. How the source made its calls: active means hit-call score of the fitted dose curve at least 0.9, where 1 is the maximum; inactive means score below 0.9.
Outcome field: choose from active, inactive

Study these solved cases before continuing.
- compound: "Oc1c(Cl)cc(Cl)c(Cl)c1Cc1c(O)c(Cl)cc(Cl)c1Cl"
  group label: "inactive"
- compound: "C=C1CC[C@H](O)C/C1=C/C=C1\\CCC[C@]2(C)[C@@H]([C@H](C)/C=C/[C@H](C)C(C)C)CC[C@@H]12"
  group label: "active"

What did the test return for CCOC(=O)CN ?
inactive

Also need Nc1ccc2cc(S(=O)(=O)O)cc(O)c2c1N=Nc1ccccc1C(F)(F)F , thanks.
inactive

Okay, and COc1ccc(CCO)cc1 ?
inactive

Follow-up item: N#Cc1ccc(CC(=O)c2cccc(C(F)(F)F)c2)cc1
inactive

// next record CCc1ccc(O)c(OC)c1
inactive

###

test description: ATG_CRE_CIS: Attagene CIS-FACTORIAL HepG2 Assay for human cAMP Responsive Element (CRE) binding protein 3 (AID 2282926)
measurement conditions: HepG2 CRE cis-reporter, Attagene multiplexed mRNA; actives raise or lower the signal
Activity calls are given as the source filed them. The calls were made as follows: active = hit-call score of the fitted dose curve at least 0.9, where 1 is the maximum; inactive = score below 0.9.
Result category, one only: active, inactive

Consider the worked cases shown below.
- compound: "C=CC(C)C#N (stereo not drawn)"
  group label: "inactive"
- compound: "CCCCCCC(C)(C)S"
  group label: "inactive"
- compound: "CCC(C)S (stereo not drawn)"
  group label: "inactive"

Answer briefly: the call reported for C=C(C)CNCC in this assay.
inactive

What about this compound? C=CC(=C)CCCC(C)(C)OC(C)=O
inactive

###

subject of test: human Thyroid Receptor alpha (THRa1), THRA (gene 7067)
test description: ATG_THRa1_TRANS: Attagene TRANS-FACTORIAL HepG2 Assay for human Thyroid Receptor alpha (THRa1) (AID 2283014)
Inconclusive results are not listed. The source made the active and inactive calls. How the source made its calls: active means hit-call score of the fitted dose curve at least 0.9, where 1 is the maximum; inconclusive means response in the unintended direction; inactive means score below 0.9.
Select the correct class. Options are t (active), f (inactive) and nothing else.

Some entries whose results are on file:
- compound: "CCOC(=O)[C@@H](C)Oc1ccc(Oc2nc3ccc(Cl)cc3o2)cc1"
  subject of test: "human Thyroid Receptor alpha (THRa1), THRA (gene 7067)"
  group label: "f"
- compound: "O=[N+]([O-])c1ccc(O)cc1C(F)(F)F"
  subject of test: "human Thyroid Receptor alpha (THRa1), THRA (gene 7067)"
  group label: "f"
- compound: "O=C(O)COCC(=O)O"
  subject of test: "human Thyroid Receptor alpha (THRa1), THRA (gene 7067)"
  group label: "f"
- compound: "COC(=O)C=C(C)CCC=C(C)C"
  subject of test: "human Thyroid Receptor alpha (THRa1), THRA (gene 7067)"
  group label: "f"
- compound: "CCc1ncc(C)[nH]1"
  subject of test: "human Thyroid Receptor alpha (THRa1), THRA (gene 7067)"
  group label: "f"

For CCCC(O)C(O)CO (stereo not drawn) , which call appears in the assay record?
f

One more compound: C[C@H]1O[C@@H](O[C@H]2[C@@H](O)C[C@H](O[C@H]3[C@@H](O)C[C@H](O[C@H]4CC[C@@]5(C)[C@H](CC[C@@H]6[C@@H]5C[C@@H](O)[C@]5(C)[C@@H](C7=CC(=O)OC7)CC[C@]65O)C4)O[C@@H]3C)O[C@@H]2C)C[C@H](O)[C@@H]1O
f

Moving on to the next compound: O=C(O)c1ccc(O)cc1
f

Now the same for CC(C)Nc1nc(N)nc(Cl)n1
f

Follow-up item: Cc1cc(C)nc(NS(=O)(=O)c2ccc(N)cc2)n1
f

###

Read-out: CD69, CD69 (gene 969)
test description: BSK_SAg_CD69: BioMAP Diversity Plus: SAg Assay for CD69 Biomarker Activity (AID 2283089)
measurement conditions: primary human HUVEC with PBMC; actives raise or lower the signal
Experimental: BSK_SAg is a cell-based, multiplexed-readout assay that uses umbilical vein endothelium and peripheral blood mononuclear cells, a human vascular primary cell co-culture, with measurements taken at 24 hours after chemical dosing in a 96-well plate.BSK_SAg_CD69 is one of 10 assay component(s) measured or calculated from the BSK_SAg assay. […] This assay endpoint, BSK_SAg_CD69, was analyzed with bidirectional fitting relative to DMSO as the negative control and baseline of activity. […]
Active and inactive are the calls of the source. The calls were made as follows: active = hit-call score of the fitted dose curve at least 0.9, where 1 is the maximum; inactive = score below 0.9.
The categories you may choose from are y for active, n for inactive

Some solved cases for reference:
- compound: "CC(C=O)Cc1ccc(C(C)(C)C)cc1 (stereo unspecified)"
  group label: "n"
- compound: "CN(C)C(=S)SC(=S)N(C)C"
  group label: "n"
- compound: "Oc1c(Cl)cc(Cl)c(Cl)c1Cc1c(O)c(Cl)cc(Cl)c1Cl"
  group label: "y"

Just curious, what result did C=C(C)C(=O)OCCOCCOCCOC(=O)C(=C)C get here?
n

Proceed to CS(=O)(=O)c1ccc(C2=C(c3ccccc3)C(=O)OC2)cc1
n

What would you report for O=C1c2ccccc2C(=O)c2c(O)ccc(O)c21 ?
n

Same lookup for c1ccc2cc(Nc3ccc(Nc4ccc5ccccc5c4)cc3)ccc2c1 , please.
n

Cool, now Cc1cc(CCC(=O)OCCOCCOCCOC(=O)CCc2cc(C)c(O)c(C(C)(C)C)c2)cc(C(C)(C)C)c1O
n

Query C=CC(C)(O)CCC=C(C)C (stereo unspecified) next
n

Next up: C=C(C)C(=O)OCC(CC)(COC(=O)C(=C)C)COC(=O)C(=C)C
n

Lookup CN(c1nccc(=O)[nH]1)C1CCN(c2nc3ccccc3n2Cc2ccc(F)cc2)CC1
n

###

test description: ATG_E_Box_CIS: Attagene CIS-FACTORIAL HepG2 Assay for human Enhancer Box (E-box) (AID 2282936)
measurement conditions: HepG2 E-box cis-reporter transcription, actives raise or lower the signal
Activity calls are given as the source filed them. How the source made its calls: active means hit-call score of the fitted dose curve at least 0.9, where 1 is the maximum; inactive means score below 0.9.
Tick one outcome: active, inactive

- compound: "CCC(C)c1cc([N+](=O)[O-])cc([N+](=O)[O-])c1OC(=O)OC(C)C (stereo unspecified)"
  group label: "active"
- compound: "CCCCCCCCN1CCCC1=O"
  group label: "inactive"
- compound: "O=C(Nc1ccc2c(O)c(N=Nc3ccc(N=Nc4ccc(S(=O)(=O)O)cc4)cc3)c(S(=O)(=O)O)cc2c1)c1ccccc1"
  group label: "inactive"
- compound: "ClC(c1ccccc1)(c1ccccc1)c1ccccc1"
  group label: "inactive"
- compound: "COc1ccc(CCN2CCC(Nc3nc4ccccc4n3Cc3ccc(F)cc3)CC2)cc1"
  group label: "inactive"

Alright, here's another compound for you.
Given C=C(C)C(=O)OCC(CC)(COC(=O)C(=C)C)COC(=O)C(=C)C , state the outcome it received in this test.
inactive

###

test description: BSK_3C_TissueFactor: BioMAP Diversity Plus: 3C Assay for Tissue Factor Biomarker Activity (AID 2282997)
measurement conditions: BioMAP 3C HUVEC, tissue factor biomarker readout; actives raise or lower the signal
Activity calls are given as the source filed them. How the source made its calls: active means hit-call score of the fitted dose curve at least 0.9, where 1 is the maximum; inactive means score below 0.9.
Choose one outcome from this list and give only that: true (1) = active, false (0) = inactive

Solved cases below.
- compound: "c1ccc(CCc2ccccc2)cc1"
  group label: "true (1)"
- compound: "C=C(C)C(=O)OCC(CC)(COC(=O)C(=C)C)COC(=O)C(=C)C"
  group label: "false (0)"
- compound: "IC(I)I"
  group label: "false (0)"
- compound: "COc1ccc(OC)c(N=Nc2c(O)ccc3ccccc23)c1"
  group label: "false (0)"
- compound: "CSCCC=O"
  group label: "false (0)"
- compound: "C=C(C)[C@H]1CC=C(C)C(=O)C1"
  group label: "false (0)"
- compound: "Cc1cc(CCC(=O)OCCOCCOCCOC(=O)CCc2cc(C)c(O)c(C(C)(C)C)c2)cc(C(C)(C)C)c1O"
  group label: "false (0)"
- compound: "CN(C)C(=S)SC(=S)N(C)C"
  group label: "false (0)"

Now for another entry.
Recorded test outcome, item CCCCCCCCCCCCCCCC(=O)OC/C=C(C)/C=C/C=C(C)/C=C/C1=C(C)CCCC1(C)C
false (0)

###

test description: ATG_EGR_CIS: Attagene CIS-FACTORIAL HepG2 Assay for human Early Growth Response 1 (EGR1) (AID 2282938)
measurement conditions: HepG2 Attagene CIS-FACTORIAL EGR reporter mRNA; actives raise or lower the signal
Active and inactive are the calls of the source. How the source made its calls: active means hit-call score of the fitted dose curve at least 0.9, where 1 is the maximum; inactive means score below 0.9.
Outcome (select one): active, inactive

# count of solved cases: 2
- molecule: "O=C(O)COCC(=O)O"
  group label: "inactive"
- molecule: "CCOc1ccc(NC(=O)CC(C)=O)cc1"
  group label: "inactive"

What call does the record list for CS(=O)(=O)c1ccc(Cl)cc1 ?
inactive

# repeat for CC(=O)C1(C)CC2=C(CCCC2(C)C)CC1C (stereo not given)
inactive

Then what about the molecule COc1ccc(OC)c(N=Nc2c(O)ccc3ccccc23)c1 ?
inactive

Next molecule up: CCCCCCCCCC(C)C=O (stereo not given)
inactive

Record: CCO/C=C1\N=C(c2ccccc2)OC1=O
inactive

How about CCCC1O[C@@H]2C[C@H]3[C@@H]4CCC5=CC(=O)C=C[C@]5(C)[C@H]4[C@@H](O)C[C@]3(C)[C@]2(C(=O)CO)O1 (stereo not given in full) ?
inactive

Next record, please: Cc1ccc(OC(=O)c2ccccc2O)cc1
inactive

Ref: PubChem BioAssay (EPA / NIEHS)
